- System: Bacillus subtilis xpt-lacZ
- assayExplanation: Broth microdilution MIC
- Type: cell-based
- appliedConditions: B. subtilis xpt-lacZ, read-out: Broth Microdilution MIC
resultType: MIC (µg/mL)
Answer format: numeric, µg/mL implied, no suffix.

Use the examples below as a reference point.
chemicalString: CCCCCNc1cc(N)nc(N)n1
resultType: MIC
outputUnit: µg/mL
value: 128
--
chemicalString: CCCCCCNc1cc(N)nc(N)n1
resultType: MIC
outputUnit: µg/mL
value: 128
--
chemicalString: Cc1onc(-c2ccccc2)c1C(=O)N[C@@H]1C(=O)N2[C@@H]1SC(C)(C)[C@@H]2C(=O)O
resultType: MIC
outputUnit: µg/mL
value: 0.25

Now, please, on to the next molecule.
Task: MIC for CCCCCCCCCCNc1cc(N)nc(N)n1 ?
Result: 4

###

- assayExplanation: LDH release assay
- Type: cell-based
- appliedConditions: bovine, MAC-T cells, 24 h
resultType: CC50 at 24 h

chemicalString: CCCCCNc1cc(N)nc(N)n1
CC50 at 24 h: > 600 µM

Task: Return reported CC50 at 24 h; argument: CCCCCCCCCCNc1cc(N)nc(N)n1
Result: 23.6 µM

Task: Dear colleague, I am looking for the recorded CC50 at 24 h of the following compound: CCCNc1cc(N)nc(N)n1
Result: > 600 µM

Task: So what does the record say about CC50 at 24 h for CCCCCCNc1cc(N)nc(N)n1 ?
Result: > 600 µM

###

- assayExplanation: LDH release assay
- Format: cell-based
- appliedConditions: bovine, MAC-T cells, converted from μM
resultType: CC50 at 24 h

Task: Can you share its CC50 at 24 h? I mean this compound: CCCCCCNc1cc(N)nc(N)n1 [PC206]
Result: > 125 µg/mL

###

- System: Staphylococcus aureus ATCC 29213
Output Yes for records whose MIC is lower than 0.5 µg/mL, No for records at or above 0.5 µg/mL.

Record excerpt, results attached:
molecule: Cc1onc(-c2ccccc2)c1C(=O)N[C@@H]1C(=O)N2[C@@H]1SC(C)(C)[C@@H]2C(=O)O [OXA, oxacillin]
groupLabel: Yes
--
molecule: CCCCCCNc1cc(N)nc(N)n1 [PC206]
groupLabel: No
--
molecule: CCCCCNc1cc(N)nc(N)n1 [PC372]
groupLabel: No
--
molecule: CCCCCCCCCCNc1cc(N)nc(N)n1 [PC383]
groupLabel: No

# input for lookup
Task: Field: below-cutoff. Rule: recorded MIC strictly less than 0.5 µg/mL. Subject: CCCNc1cc(N)nc(N)n1 [PC371]
Result: No

###

- assayExplanation: LDH release assay
- Assay type: cell-based
- appliedConditions: human, HepG2 cells
resultType: CC50 at 24 h (µM)
Respond with the bare value in µM.

molecule: CCCCCNc1cc(N)nc(N)n1 [PC372]
value: 394

molecule: CCCCCCCCCCNc1cc(N)nc(N)n1 [PC383]
value: 6.6

API: the following record is the query input.
Task: Entry under review: CCCCCCNc1cc(N)nc(N)n1 [PC206] . Reported CC50 at 24 h?
Result: 149

###

Each record here notes measured MIC.
- Tested on: Enterococcus faecalis ATCC 29212
// note: answer is a bare numeric in µg/mL

Here's what some known entries look like.
compound: CN[C@H](CC(C)C)C(=O)N[C@H]1C(=O)N[C@@H](CC(N)=O)C(=O)N[C@H]2C(=O)N[C@H]3C(=O)N[C@H](C(=O)N[C@H](C(=O)O)c4cc(O)cc(O)c4-c4cc3ccc4O)[C@H](O)c3ccc(c(Cl)c3)Oc3cc2cc(c3O[C@@H]2O[C@H](CO)[C@@H](O)[C@H](O)[C@H]2O[C@H]2C[C@](C)(N)[C@H](O)[C@H](C)O2)Oc2ccc(cc2Cl)[C@H]1O [VAN, vancomycin]
resultType: MIC
outputUnit: µg/mL
value: 4

compound: CCCCCCNc1cc(N)nc(N)n1 [PC206]
resultType: MIC
outputUnit: µg/mL
value: 128

Attention now turns to another entry.
Task: Entry under review: CCCCCCCCCCNc1cc(N)nc(N)n1 [PC383] . Reported MIC?
Result: 4
